Kindly state IC50 for each of the entries shown.
test: Inhibition of human ABCB1 expressed in mouse L5178Y cells assessed as reduction in cell growth after 24 hrs by MTT assay
Give bare numbers, in µM.

As a guide, the following entries are already answered.
| RECORD SMILES | UNITS OF MEASURE | RESULT |
| --- | --- | --- |
| CC[C@H]1CN(C)[C@H]2Cc3c(n(C)c4ccccc34)C(=O)C[C@H]1[C@@H]2C(=O)OC | µM | 89.2 |
| CC[C@@H]1CN(C)[C@H]2Cc3c([nH]c4ccccc34)/C(=N/Nc3ccc(Br)cn3)C[C@H]1[C@@H]2C(=O)OC | µM | 37.6 |
| CC[C@H]1CN(C)[C@H]2Cc3c([nH]c4ccccc34)/C(=N/Nc3ccc(Br)cn3)C[C@H]1[C@@H]2C(=O)OC | µM | 39.9 |
| CC[C@@H]1CN(C)[C@H]2Cc3c([nH]c4ccccc34)/C(=N/Nc3ccccc3)C[C@H]1[C@@H]2C(=O)OC | µM | 17 |

Okay, here is my list. What is IC50 for each of these?
1. CC[C@H]1CN(C)[C@H]2Cc3c([nH]c4ccccc34)C(=S)C[C@H]1[C@@H]2C(=O)OC
2. CC[C@H]1CN(C)[C@H]2Cc3c([nH]c4ccccc34)/C(=N/O)C[C@H]1[C@@H]2C(=O)OC
3. CC[C@H]1CN(C)[C@H]2Cc3c([nH]c4ccccc34)/C(=N/Nc3cnccn3)C[C@H]1[C@@H]2C(=O)OC
4. CC[C@H]1CN(C)[C@H]2Cc3c([nH]c4ccccc34)/C(=N/Nc3ccccc3)C[C@H]1[C@@H]2C(=O)OC

### Response
77.9
16.7
84.8
52.7
